TARGET DESC: Butyrylcholinesterase (EC 3.1.1.8, BChE) from equine serum (eqBChE) (Equus caballus, UniProt P81908)
Construct: Butyrylcholinesterase (EC 3.1.1.8, BChE) was from equine serum (eqBChE) (Sigma-Aldrich); purchased Sigma-Aldrich; host or cells: equine serum
Sequence (P81908 whole entry): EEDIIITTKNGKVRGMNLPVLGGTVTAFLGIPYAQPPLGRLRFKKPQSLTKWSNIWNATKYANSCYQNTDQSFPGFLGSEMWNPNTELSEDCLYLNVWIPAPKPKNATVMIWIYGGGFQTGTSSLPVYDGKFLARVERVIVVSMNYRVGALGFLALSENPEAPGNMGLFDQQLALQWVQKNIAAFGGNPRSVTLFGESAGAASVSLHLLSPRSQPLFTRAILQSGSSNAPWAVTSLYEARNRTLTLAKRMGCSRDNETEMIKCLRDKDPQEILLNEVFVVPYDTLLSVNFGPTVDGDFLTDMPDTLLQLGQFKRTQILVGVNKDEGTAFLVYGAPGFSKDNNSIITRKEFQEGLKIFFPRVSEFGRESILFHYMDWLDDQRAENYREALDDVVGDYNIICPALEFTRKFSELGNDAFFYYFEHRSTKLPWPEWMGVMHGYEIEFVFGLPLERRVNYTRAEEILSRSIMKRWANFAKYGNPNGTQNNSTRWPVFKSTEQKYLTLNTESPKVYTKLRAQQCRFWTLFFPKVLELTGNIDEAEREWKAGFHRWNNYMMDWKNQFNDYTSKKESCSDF
ASSAY NAME: Butyrylcholinesterase inhibition, Ellman's method
Type: biochemical
TEST CONTEXT: eqBChE, BTCI substrate, pH 8.0, 37 °C; mean ± SD of three independent experiments; read-out: IC50, inhibitory effect on BChE activity
QUANTITY NAME: pIC50
Answers are plain numbers, as −log10 of the molar value.

>  <COMPOUND>
Oc1ccc(Cc2cc3cc(Cl)ccc3o2)cc1 [Compound 11B]

>  <MEASURED NUMBER>
4.25

$$$$
>  <COMPOUND>
Oc1cccc(Cc2cc3cc(Cl)ccc3o2)c1 [Compound 15B, 5-chloro-2-(3-hydroxybenzyl)benzofuran]

>  <MEASURED NUMBER>
4.56

$$$$
>  <COMPOUND>
Oc1cccc(Cc2cc3cccc(Br)c3o2)c1 [Compound 14B]

>  <MEASURED NUMBER>
4.50

$$$$

Batch request: pIC50 per item, same order as input.
1. Oc1ccc(Cc2cc3cccc(Cl)c3o2)cc1 [Compound 12B]
2. Oc1cccc(Cc2cc3cccc(Cl)c3o2)c1 [Compound 16B]
3. Oc1ccc(Cc2cc3cccc(Br)c3o2)cc1 [Compound 10B]
4. Oc1cccc(Cc2cc3cc(Br)ccc3o2)c1 [Compound 13B]

OUTPUT:
1. 4.37
2. 4.21
3. 4.49
4. 4.40
